// reported EC50 for each item listed
biological target: T1, recombinant human IL4Rα-his protein (in house made) (human, UniProt P24394 26-232, limits assumed); test: capture ELISA: antibody captured on anti-IgG Fc plate, biotin human IL4Rα-his detected
T1 construct: also called Human IL4Ra-his

binder | EC50
mouse antibody B1D2F7D3B5 (antibody, V domains shown, Mouse hybridoma mAb) VH: EVKLVESGGGLVKPGGSLKLSCAASGFTFSSYAMSWVRQTPEKRLEWVASISSGDSTYYLDSVKGRFTISRDNAMNILYLQMSSLRSEDTAVYYCERSGGSAPYWGQGTLVSVSA VL: QIVLTQSPAIMSASPGEMVTISCSASSSVSYMYWYQQKPGSSPKPWIYRTSNLASGVPARFSGSGSGTSYSLTISSMEAEDAATYYCQQYHSFPLTFGAGTKLELK | 0.0644 nM
mouse antibody C2C1A1A1 (antibody, V domains shown, Mouse hybridoma mAb; also called Mouse C2C1A1A1) VH: EVQLVESGGGLVQPGGSLKLSCAASGFTFSTYGMSWVRQTPDKRLELVATINSNGGSTSYPDSVKGRFTISRDNAKNTLYLQMSSLKSEDTAMFYCARFFRFRNAMDYWGQGTSVTVSS VL: DIQMTQSPASLSASVGETVTITCRTSENIYSYLAWYQQKQGKSPQFLVYNAKTLAEGVPSRFSGSGSGTQFSLNINSLQSEDFGSYYCQHYYGPPTWTFGGGTKLEIK | 0.0759 nM
mouse antibody B8G11F2B7G5E8 (antibody, V domains shown, Mouse hybridoma mAb; also called Mouse B8G11F2B7G5E8; mAb B8G11F2B7G5E8) VH: EVQLQQSGADLVRPGASVKLSCTASGFNIKDTYMHWVKQRPEQGLEWVGRIDPTNGYTIYASKFQGKATITADTSSNTAYMQLSSLTSGDTAVYHCVSRRPWFAYWGQGTLVTVSA VL: DILMTQTPLSLPVSLGAQASISCRSSQSIVHSNGNTYLEWYLQKPGQSPKLLIYKVTNRFSGVPDRFSGSGSGTDFTLKISRVEAEDLGIYYCFQGSHVPYTFGGGTKLEIK | 0.0393 nM
mouse antibody B9D1D11F8D8 (antibody, V domains shown, Mouse hybridoma mAb) VH: EVKLVESGGGLVKPGGSLKLSCAASGFTFSSYAMSWVRQTPEKRLEWVASISSGDSTYYLDSVKGRFTISRDNARNILYLQVSSLRSEDTAMYYCERSGGSAPYWGQGTLVTVSA VL: QIVLTQSPAIMSASPGDMVTISCSASSSVNYMYWYQQKPGSSPKPWIYRTSNLASGVPARFSGSGSGTSYSLTISSMEAEDAATYYCQQYHSFPLTFGAGTKLELK | 0.0703 nM

IN: Which value of EC50 has been reported for mouse antibody C2B2F7B7 (antibody, V domains shown, Mouse hybridoma mAb) VH: EVQLVESGGGLVQPGGSLKLSCAASGFTFSTYGMSWVRQTPDKRLELVATINSNGGSTNYPDSVKGRFTISRDNAKNTLYLQMSSLKSEDTAMYYCARFFRIRNAMDYWGQGTSVTVSS VL: DIQMTQSPASLSASVGETVTITCRASENIYSYLAWYQQKQGKSPQFLVYNAKTLAEGVPSRFSGSGSGTQFSLKINSLQPEDFGSYYCQHYYGTPTWTFGGGTKLEIK in the records?
OUT: 0.129 nM

The reported numbers originate from patent US20230105029A1.
